# Tgt: T1, cloned human somatostatin receptor 1 (human, UniProt P30872 1-391)
# T1 construct: whole, on cells; Tested as cell membrane preparations; also called SSTR-1; SSTR1
# Method summary: IC50 for SST-R1 (subtype numbers stand in r6)
Bridges are numbered along the chain shown (N, C = ends). Where no end group is shown, it is not given here. [ ]: non-standard residue; d: D form. Gly(S2) = not defined here
Reported endpoint: IC50 (nM)

                                     binder  reported_endpoint  endpoint_result
0  CFW[dW]KTF[Gly(S2)]-NH2 (disulfide 1-8; reading uncertain, Backbone to side chain cyclized octapeptide) [PTR 3197]               IC50             1000
